Source: PubChem BioAssay

assay: SK-BR-3 cell growth inhibitors, pilot screen, 24 h, human (AID 572); settings: SK-BR-3 viability, CellTiter-Glo luminescence, at 10 µM, active compounds read low;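 also: compound exposure lasted between 18 and 24 h rather than exactly 24 h; 100% = carrier-treated control wells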
property: viability (%)
Note: unit % is implicit; provide only the numeric part.

Reference set, count: 4
CCCCCC(=O)O[C@]1(C(C)=O)CC[C@H]2[C@@H]3CCC4=CC(=O)CC[C@]4(C)[C@H]3CC[C@@]21C = 93
CCCOc1ccc2nc(NC(=O)OC)[nH]c2c1 = 95
COc1ccc(C2/C(=C(/O)c3ccccc3)C(=O)C(=O)N2c2ncccn2)cc1OC (stereo not given) = 105
CC(=O)[C@@]1(O)CC[C@H]2[C@@H]3C[C@H](C)C4=CC(=O)CC[C@]4(C)[C@H]3CC[C@@]21C = 106

# query: viability of entry CSc1c(C#N)c(N)c(C#N)c2c1COC(C)(C)C2
94

# query: viability of entry CCOc1ccc(N2CC(C(=O)NCCc3ccc(OC)c(OC)c3)CC2=O)cc1 (stereo not given)
108
